Recorded celastrol score (connectivity score) for the following molecules
# Test system: celastrol signature
# Assay Method Text: Connectivity Map query with the celastrol signature
# Type: cell-based, human
# Condition Label: enrichment of the celastrol signature (1.25 μM celastrol at 6 h, LNCaP) in the compound's Connectivity Map profiles; 6 hr treatment
Residues, ends and D or L forms follow the SMILES beside them. *: point of attachment. Cbz = O=C(OCc1ccccc1)*
Keep it simple and answer with nothing but the number.

The cases that follow already have their celastrol score (connectivity score) on record.
| Molecule | Value Measured |
| --- | --- |
| N#CC(=C(N)Sc1ccccc1)C(C#N)=C(N)Sc1ccccc1 | 0 |
| O=C(O)Cc1ccccc1Nc1c(Cl)cccc1Cl | −0.197 |
| COc1cc2ncnc(Nc3cccc(Cl)c3)c2cc1OC | 0 |
| NCCc1ccc(O)c(O)c1 | −0.596 |
| NC(=O)c1cccc(N)c1 [3-aminobenzamide] | −0.587 |
| O=C(O)CCc1nc(-c2ccccc2)c(-c2ccccc2)o1 | 0.445 |
| C=C[C@@]1(C)CC(=O)[C@]2(O)[C@@]3(C)[C@@H](O)CCC(C)(C)[C@@H]3[C@H](O)[C@H](OC(C)=O)[C@@]2(C)O1 | 0 |
| COc1cc(/C=C(\C#N)C(N)=O)cc(CSc2nc3ccccc3s2)c1O | 0 |

// celastrol score (connectivity score) lookup, key: `C[C@@H]1NC(=O)[C@H]2CCCN2C(=O)[C@H](CCCCCC(=O)[C@@H]2CO2)NC(=O)[C@@H](C)NC1=O`
0

Could you do the same for `CN(C)c1ccc(O)c2c1C[C@H]1C[C@H]3[C@H](N(C)C)C(O)=C(C(N)=O)C(=O)[C@@]3(O)C(O)=C1C2=O` , please?
0

Could you do the same for [Cl][Co][Cl] [cobalt chloride] , please?
0.269

Could you do the same for `C[C@]12CC[C@@H]3c4ccc(O)cc4CC[C@H]3[C@@H]1CC[C@H]2O` , please?
−0.066

Could you do the same for CC(C)C[C@@H](C=O)NC(=O)[C@H](CC(C)C)NC(=O)[C@H](CC(C)C)NC(=O)OCc1ccccc1 [MG-132] (Cbz-Leu-Leu-Leu-aldehyde) , please?
0.902

Could you do the same for C[C@@H]1C[C@H]2[C@@H]3CCC4=CC(=O)C=C[C@]4(C)[C@@]3(F)[C@@H](O)C[C@]2(C)[C@@]1(O)C(=O)CO [dexamethasone, reference compound] , please?
0

Could you do the same for `S=c1nc[nH]c2nc[nH]c12` , please?
−0.121

Could you do the same for `COc1cc2c(c(OC)c1OC)-c1ccc(OC)c(=O)cc1[C@@H](NC(C)=O)CC2` , please?
0.391

Could you do the same for `O=C(O)c1cc(/N=N/c2ccc(S(=O)(=O)Nc3ccccn3)cc2)ccc1O` , please?
0

Could you do the same for `O=C1CCc2c(ccc3ccccc23)O1` , please?
−0.525

Numbers sourced from patent US20110263693A1.
